# EXPERIMENTAL_SYSTEM: ESR1 (Homo sapiens, UniProt P03372+Q96SW2)
# Construct: Full size proteins are fused for each of the target proteins tested; expressed in transfected cells; host or cells: HEK293T
# TEST_DETAILS: Recruitment Assay (MAPPIT-like): ESR1 recruitment, pSEL-CRBN+pMG1-ESR1
# Assay type: cell-based
# CONDITION_DESCRIPTION: HEK293T cells, luciferase 24 hours after compound treatment; read-out: Recruitment EC50 (M), target protein ESR1
MEASURED_PROPERTY: EC50 (M)
Numbers only, in M.

{"COMPOUND": "CC/C(=C(\\c1ccccc1)c1ccc(OCCN(C)CC(=O)NCCOCCOCCOCCNC(=O)COc2cccc3c2CN(C2CCC(=O)NC2=O)C3=O)cc1)c1ccccc1 (stereo not drawn)", "UNIT_ABBREVIATION": "M", "EC50": "4.42e-07"}
{"COMPOUND": "CC/C(=C(\\c1ccccc1)c1ccc(OCCN(C)CC(=O)NCCOCCOCCOCCOCCNC(=O)COc2cccc3c2CN(C2CCC(=O)NC2=O)C3=O)cc1)c1ccccc1 (stereo not drawn)", "UNIT_ABBREVIATION": "M", "EC50": "7.35e-07"}

*Q* Which EC50 value belongs to CC/C(=C(\c1ccccc1)c1ccc(OCCN(C)CC(=O)NCCOCCOCCNC(=O)COc2cccc3c2CN(C2CCC(=O)NC2=O)C3=O)cc1)c1ccccc1 (stereo not drawn) ?
*A* 1.35e-07

* * *

# EXPERIMENTAL_SYSTEM: CRBN (Homo sapiens)
# Construct: expressed in transfected cells; host or cells: HEK293T
# TEST_DETAILS: Competition Assay: MAPPIT-like, competition with trimethoprim-lenalidomide hybrid ligand for binding to CRBN in HEK293T cells
# Type: cell-based
# CONDITION_DESCRIPTION: protocol and reagents of Example 1; read-out: IC50 Competition
MEASURED_PROPERTY: IC50 (nM)
Numbers only, in nM.

{"MOLECULE": "Nc1nc(Nc2ccc3c(c2)CN(C2CCC(=O)NC2=O)C3=O)nc2sccc12 (centres unmarked) [Compound C80379]", "IC50 / nM": 971}
{"MOLECULE": "O=C1CCC(N2Cc3c(cccc3-c3ccccc3)C2=O)C(=O)N1 (centres unmarked) [Compound C48014]", "IC50 / nM": 24.3}
{"MOLECULE": "O=C1CCC(Nc2cnc3ccccc3n2)C(=O)N1 (centres unmarked) [Compound C44292]", "IC50 / nM": 8320}

Need IC50 for each of these molecules.
1. N#Cc1ccc(Nc2ccc3c(c2)C(=O)N(C2CCC(=O)NC2=O)C3)nn1 (centres unmarked) [Compound C80389]
2. CS(=O)(=O)Nc1cccc2c1CN(C1CCC(=O)NC1=O)C2=O (centres unmarked) [Compound C22548]

*A*
645
1110

* * *

# EXPERIMENTAL_SYSTEM: CRBN (Homo sapiens)
# Construct: expressed in transfected cells; host or cells: HEK293T
# TEST_DETAILS: Competition Assay: MAPPIT-like, competition with trimethoprim-lenalidomide hybrid ligand for binding to CRBN in HEK293T cells
# Type: cell-based
# CONDITION_DESCRIPTION: protocol and reagents of Example 1; read-out: IC50 Competition
Structures can show the parent of a compound that is named as a salt.
MEASURED_PROPERTY: IC50

{"MOLECULE": "O=C1CCC(N2Cc3ccc(Nc4ncnc5ccccc45)cc3C2=O)C(=O)N1 (centres unmarked) [C80382 acetic acid salt]", "OBS_VALUE": "33.4 nM"}
{"MOLECULE": "NC(=O)c1cccc(NC(=O)CNc2ccc3c(c2)CN(C2CCC(=O)NC2=O)C3=O)c1 (centres unmarked) [Compound C35811]", "OBS_VALUE": "2440 nM"}
{"MOLECULE": "CC(Nc1ccc2c(c1)C(=O)N(C1CCC(=O)NC1=O)C2)C(=O)O (centres unmarked) [Compound C84970]", "OBS_VALUE": "1420 nM"}

Need IC50 for each of these molecules.
1. Cc1cccc2c1C(=O)N(C1CCC(=O)NC1=O)S2(=O)=O (centres unmarked) [Compound C73349]
2. O=C1CCC(N2Cc3ccc(NC(=O)c4cnc5nccn5c4)cc3C2=O)C(=O)N1 (centres unmarked) [Compound C80396]
3. CC1Cc2ccccc2N1C(=O)CNc1ccc2c(c1)C(=O)N(C1CCC(=O)NC1=O)C2 (centres unmarked) [Compound C95336]
4. O=C1CCC(N2C(=O)c3ccccc3C2C2=c3ccccc3=NC2)C(=O)N1 (centres unmarked) [Compound C49713]

*A*
["4950 nM", "2630 nM", "11900 nM", "6740 nM"]

*Q* Which IC50 value belongs to CC(=O)Nc1ccc2c(c1)CN(C1CCC(=O)NC1=O)C2=O (centres unmarked) [Compound C29361] ?
*A* 1430 nM

* * *

# EXPERIMENTAL_SYSTEM: CRBN (Homo sapiens)
# Construct: expressed in transfected cells; host or cells: HEK293T
# TEST_DETAILS: Competition Assay: MAPPIT-like, competition with trimethoprim-lenalidomide hybrid ligand for binding to CRBN in HEK293T cells
# Format: cell-based
# CONDITION_DESCRIPTION: protocol and reagents of Example 1; read-out: IC50 Competition
# strict inequality: IC50 < 1 µM yields class 1, everything else yields class 0

{"COMPOUND": "O=C1CCC(N2Cc3ccc(N4CCNC4=O)cc3C2=O)C(=O)N1 (centres unmarked)", "EXPERIMENTAL_SYSTEM": "CRBN (Homo sapiens)", "LABEL": "class 0"}

*Q* Would you kindly verify if IC50 of O=C1CCC(N2Cc3cc(Nc4ncc5c(n4)COC5)ccc3C2=O)C(=O)N1 (centres unmarked) is strictly less than 1 µM?
*A* class 1

*Q* // next record O=C1N=CC(N2C(=O)c3ccccc3C2=O)C(=O)N1 (centres unmarked)
*A* class 0

*Q* // next record CC(=O)NCCNc1ccc2c(c1)CN(C1CCC(=O)NC1=O)C2=O (centres unmarked)
*A* class 0

*Q* // next record COCC(=O)Nc1cccc2c1CN(C1CCC(=O)NC1=O)C2=O (centres unmarked)
*A* class 0

* * *

# EXPERIMENTAL_SYSTEM: ASS1 (Homo sapiens, UniProt P00966+Q96SW2)
# Construct: Full size proteins are fused for each of the target proteins tested
# TEST_DETAILS: Recruitment Assay (MAPPIT-like): ASS1 recruitment, pSEL-CRBN+pMG1-ASS1
# CONDITION_DESCRIPTION: recruitment of ASS1, protocol of Example 2; read-out: EC50_ASS1
# strict inequality: EC50 < 900 nM yields T, everything else yields F

These solved cases illustrate the format of a correct answer.
{"COMPOUND": "Cc1cccc2c(=O)n(C3CCC(=O)NC3=O)nnc12 (stereo not shown)", "LABEL": "F"}
{"COMPOUND": "Cc1cccc2nnn(C3CCC(=O)NC3=O)c(=O)c12 (stereo not shown)", "LABEL": "F"}
{"COMPOUND": "Cc1ccc2c(c1)CN(C1CCC(=O)NC1=O)C2=O (stereo not shown)", "LABEL": "T"}
{"COMPOUND": "Cc1cccc2c1CN(C1CCC(=O)NC1=O)C2=O (stereo not shown)", "LABEL": "T"}
{"COMPOUND": "N#Cc1ccc(Nc2ccc3c(c2)CN(C2CCC(=O)NC2=O)C3=O)nn1 (stereo not shown)", "LABEL": "F"}
{"COMPOUND": "O=C1CCC(N2Cc3c(Cl)cccc3C2=O)C(=O)N1 (stereo not shown)", "LABEL": "T"}

*Q* Would you kindly verify if EC50 of Cc1ccc(NC(=O)NCc2ccc3c(c2)CN(C2CCC(=O)NC2=O)C3=O)cc1Cl (stereo not shown) [CC-885, reference compound] is strictly less than 900 nM?
*A* T

*Q* // next record O=C1CCC(N2Cc3cc(NCCNC(=O)Nc4ccccc4)ccc3C2=O)C(=O)N1 (stereo not shown)
*A* F

*Q* // next record Nc1cccc2nnn(C3CCC(=O)NC3=O)c(=O)c12 (stereo not shown)
*A* T

*Q* // next record CC1c2ccccc2C(=O)N1C1CCC(=O)NC1=O (stereo not shown)
*A* F

*Q* // next record O=C1CCC(N2Cc3cc(Nc4ncccn4)ccc3C2=O)C(=O)N1 (stereo not shown)
*A* F

* * *

Exercise: for every item that follows, state its recorded log10 of IC50.
# EXPERIMENTAL_SYSTEM: CRBN (Homo sapiens)
# Construct: expressed in transfected cells; host or cells: HEK293T
# TEST_DETAILS: Competition Assay: MAPPIT-like, competition with trimethoprim-lenalidomide hybrid ligand for binding to CRBN in HEK293T cells
# Format: cell-based
# CONDITION_DESCRIPTION: protocol and reagents of Example 1; read-out: IC50 Competition
# values: log10(IC50), units µM

Some compounds with known log10 of IC50 results, for comparison:
{"COMPOUND": "O=C1CCC(N2Cc3ccc(NCC(=O)N4CCCCC4)cc3C2=O)C(=O)N1 (centres unmarked) [Compound C12581]", "EXPERIMENTAL_SYSTEM": "CRBN (Homo sapiens)", "OBS_VALUE": 1.00}
{"COMPOUND": "Cc1ccc2c(c1)CN(C1CCC(=O)NC1=O)C2=O (centres unmarked) [Compound C28577]", "EXPERIMENTAL_SYSTEM": "CRBN (Homo sapiens)", "OBS_VALUE": -0.95}
{"COMPOUND": "Cn1ccnc(Nc2ccc3c(c2)C(=O)N(C2CCC(=O)NC2=O)C3)c1=O (centres unmarked) [Compound C80387]", "EXPERIMENTAL_SYSTEM": "CRBN (Homo sapiens)", "OBS_VALUE": -1.27}

Need log10 of IC50 for each of these compounds.
1. CC1c2ccccc2C(=O)N1C1CCC(=O)NC1=O (centres unmarked) [Compound C51383]
2. O=C1CCC(N2Cc3ccc(NCC(=O)N4CCc5ccccc5C4)cc3C2=O)C(=O)N1 (centres unmarked) [Compound C95329]
3. Cc1nc(N(C)C)cc2c1C(=O)N(C1CCC(=O)NC1=O)C2=O (centres unmarked) [Compound C64376]
4. COC1c2ccccc2C(=O)N1C1CCC(=O)NC1=O (centres unmarked) [Compound C56572]
5. O=C(CNc1ccc2c(c1)C(=O)N(C1CCC(=O)NC1=O)C2)NCc1ccccc1 (centres unmarked) [Compound C84966]

*A*
-0.72
1.01
0.60
0.94
-0.22

Need log10 of IC50 for each of these compounds.
1. O=C1CCC(N2Cc3ccc(NCC(=O)N4CC5CC4CO5)cc3C2=O)C(=O)N1 (centres unmarked) [Compound C12589]
2. O=C1CCC(N2Cc3ccc(Nc4cnc5ccccc5n4)cc3C2=O)C(=O)N1 (centres unmarked) [Compound C80386]
3. O=C1Cc2ccccc2C(=O)N1 [Compound C15352, 4H-isoquinoline-1,3-dione]
4. CC(=O)Nc1cccc2c1C(=O)N(C1CCC(=O)NC1=O)C2 (centres unmarked) [Compound C29457]
5. CC(=O)Nc1ccc2c(c1)C(=O)N(C1CCC(=O)NC1=O)C2 (centres unmarked) [Compound C29408]
6. Cc1ccc2c(=O)n(C3CCC(=O)NC3=O)nnc2c1 (centres unmarked) [Compound C17800]
7. O=C1CCC(N2Cc3cc(NCC(=O)Nc4ccccc4)ccc3C2=O)C(=O)N1 (centres unmarked) [Compound C35797]
8. O=C1CCC(N2Cc3cc(Nc4ncnc5ccccc45)ccc3C2=O)C(=O)N1 (centres unmarked) [Compound C80373]

*A*
1. 1.01
2. -1.17
3. 1.01
4. 1.02
5. 0.69
6. 1.34
7. -0.07
8. -0.05
